# Test system: Organ of Corti
# experimentDescription: Immunohistochemistry identification of phage binding regions in mouse inner ear (Organ of Corti)
# Format: in vivo
# recordedConditions: phage 1×10^9 pfu injected into round window of neomycin-treated mice, anti-M13 immunostaining 1 hour after inoculation
No end group written: not given here.
readoutType: Phage binding site, Organ of Corti

Some solved entries appear below for comparison.
PPRPIPM
No binding
SEGRLYK [phage pIII NH2 terminal 7 amino acid peptide]
No binding
HPHHRIF [phage pIII NH2 terminal 7 amino acid peptide]
No binding
SNQLLMT [phage pIII NH2 terminal 7 amino acid peptide]
No binding
ALQYHNL [phage pIII NH2 terminal 7 amino acid peptide]
No binding

// map STTKLAL [phage pIII NH2 terminal 7 amino acid peptide] to recorded Phage binding site, Organ of Corti (system: Organ of Corti) No binding

Now consider THQARSV [phage pIII NH2 terminal 7 amino acid peptide] . No binding
